target: Pax5(1-149) WT;GABPα(311-430);GABPβ1(1-157) (human;;, UniProt Q02548;Q00422;Q00420 1-149;311-430;1-157, ||); assay: EMSA
Sequence (Q02548 1-149, chain 1 of 3): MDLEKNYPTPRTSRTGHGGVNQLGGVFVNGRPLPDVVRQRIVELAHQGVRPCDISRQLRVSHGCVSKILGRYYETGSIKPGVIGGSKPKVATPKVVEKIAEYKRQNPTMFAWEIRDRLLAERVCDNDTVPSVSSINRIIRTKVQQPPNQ
Sequence (Q00422 311-430, chain 2 of 3): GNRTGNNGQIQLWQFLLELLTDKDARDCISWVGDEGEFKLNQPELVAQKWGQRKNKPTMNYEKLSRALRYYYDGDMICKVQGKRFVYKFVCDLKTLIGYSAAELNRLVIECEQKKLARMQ
Sequence (Q00420 1-157, chain 3 of 3): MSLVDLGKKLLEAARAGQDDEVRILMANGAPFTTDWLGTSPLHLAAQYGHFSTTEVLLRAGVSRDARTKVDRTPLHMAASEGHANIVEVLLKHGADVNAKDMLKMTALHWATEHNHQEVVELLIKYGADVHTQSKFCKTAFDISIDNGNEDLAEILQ
measure: Kd (nM)
Kindly answer with a numeric value in nM, unit omitted.

Task item: So what does the record say about Kd for P5-EBS probe (dsDNA) DNA 1: TCGAAGGGCCACTGGAGCCCATCTCCGGCACGGC DNA 2: TCGAGCCGTGCCGGAGATGGGCTCCAGTGGCCCT ?
Reply: 4.08

Source: paper PMC2763353
